- Measured On: T1, NPR-B (natriuretic peptide receptor B), murine, expressed endogenously on NIH3T3 cells (murine, UniProt Q6VVW5 17-1047)
- T1 sequence (looked up): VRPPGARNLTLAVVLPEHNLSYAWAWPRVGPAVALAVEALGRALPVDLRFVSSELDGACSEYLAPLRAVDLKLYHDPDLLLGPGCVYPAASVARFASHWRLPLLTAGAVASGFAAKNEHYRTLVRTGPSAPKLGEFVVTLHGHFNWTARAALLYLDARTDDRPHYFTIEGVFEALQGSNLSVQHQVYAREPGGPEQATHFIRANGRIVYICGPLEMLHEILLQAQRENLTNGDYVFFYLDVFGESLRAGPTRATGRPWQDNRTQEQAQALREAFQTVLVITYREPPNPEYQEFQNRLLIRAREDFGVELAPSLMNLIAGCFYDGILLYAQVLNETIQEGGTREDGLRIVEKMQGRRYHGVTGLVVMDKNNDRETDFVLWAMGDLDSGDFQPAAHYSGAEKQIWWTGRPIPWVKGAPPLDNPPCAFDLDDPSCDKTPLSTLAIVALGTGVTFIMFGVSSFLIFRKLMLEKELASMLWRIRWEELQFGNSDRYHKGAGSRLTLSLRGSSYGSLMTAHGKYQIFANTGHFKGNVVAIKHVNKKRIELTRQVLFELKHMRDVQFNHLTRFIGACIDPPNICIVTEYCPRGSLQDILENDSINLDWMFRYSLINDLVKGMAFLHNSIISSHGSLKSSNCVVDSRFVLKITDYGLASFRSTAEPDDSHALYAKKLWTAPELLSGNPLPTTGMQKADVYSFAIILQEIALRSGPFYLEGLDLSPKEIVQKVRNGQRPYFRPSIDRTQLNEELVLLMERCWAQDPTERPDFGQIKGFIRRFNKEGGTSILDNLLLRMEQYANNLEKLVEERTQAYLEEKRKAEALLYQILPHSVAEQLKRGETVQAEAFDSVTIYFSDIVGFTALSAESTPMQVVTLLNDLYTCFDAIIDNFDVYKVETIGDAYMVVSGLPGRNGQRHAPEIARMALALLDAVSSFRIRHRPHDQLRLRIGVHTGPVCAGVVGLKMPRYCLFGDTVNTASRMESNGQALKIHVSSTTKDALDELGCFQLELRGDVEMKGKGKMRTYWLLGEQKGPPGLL
- Assay: cell-based or functional assay
Where no end group is shown, it is not given here. [ ]: non-standard residue; d: D form. NMeL = CN[C@@H](CC(C)C)C(=O)O; Tle = CC(C)(C)[C@H](N)C(=O)O
Attribute Measured: cGMP response rel. to 1 uM CNP22; 1 uM peptide, NIH3T3 cells

Binder: GLSKGCFG[NMeL]KLDRIGSMSG[NMeL]GC (ends and bridges not checked) [CNP22, N-methyl-L9, N-methyl-L20]
Result: 1 rel. to 1 uM CNP22 (100)
//
Binder: GLSKGCFGLKLDRIGSMSGLGC [CNP22 (wild-type human CNP-22)]
Result: 100 rel. to 1 uM CNP22 (100)
//
Binder: G[dL][dS][dK]G[dC][dF]G[dL][dK][dL][dD][dR][dI]G[dS][dM][dS]G[dL]G[dC] (ends and bridges not checked) [D-CNP22 (all D-amino acids)]
Result: 1 rel. to 1 uM CNP22 (100)
//
Binder: GLSKGCF[Tle]LKLDRIGSMSGLGC (ends and bridges not checked) [CNP22, t-butyl-G8]
Result: 18 rel. to 1 uM CNP22 (100)
//
Binder: GLSKGCXGLKLDRIGSMSGLGC (N-methyl-Phe at 7) [CNP22, N-methyl-F7 (methylated amide)]
Result: 38 rel. to 1 uM CNP22 (100)
//
Binder: GLSKGCFGLK[NMeL]DRIGSMSGLGC (ends and bridges not checked) [CNP22, N-methyl-L11]
Result: 51 rel. to 1 uM CNP22 (100)
